These data points were gathered from patent US9540366B2.

Quick list: pIC50 per entry.
- TARGET OR SYSTEM: human Cav3.2 T-type Ca2+ channel (Homo sapiens, UniProt O95180)
- Construct: expressed in transfected cells; host or cells: KJMGER8 cells (Namalwa cell-derived cell line)
- Sequence (O95180 whole entry): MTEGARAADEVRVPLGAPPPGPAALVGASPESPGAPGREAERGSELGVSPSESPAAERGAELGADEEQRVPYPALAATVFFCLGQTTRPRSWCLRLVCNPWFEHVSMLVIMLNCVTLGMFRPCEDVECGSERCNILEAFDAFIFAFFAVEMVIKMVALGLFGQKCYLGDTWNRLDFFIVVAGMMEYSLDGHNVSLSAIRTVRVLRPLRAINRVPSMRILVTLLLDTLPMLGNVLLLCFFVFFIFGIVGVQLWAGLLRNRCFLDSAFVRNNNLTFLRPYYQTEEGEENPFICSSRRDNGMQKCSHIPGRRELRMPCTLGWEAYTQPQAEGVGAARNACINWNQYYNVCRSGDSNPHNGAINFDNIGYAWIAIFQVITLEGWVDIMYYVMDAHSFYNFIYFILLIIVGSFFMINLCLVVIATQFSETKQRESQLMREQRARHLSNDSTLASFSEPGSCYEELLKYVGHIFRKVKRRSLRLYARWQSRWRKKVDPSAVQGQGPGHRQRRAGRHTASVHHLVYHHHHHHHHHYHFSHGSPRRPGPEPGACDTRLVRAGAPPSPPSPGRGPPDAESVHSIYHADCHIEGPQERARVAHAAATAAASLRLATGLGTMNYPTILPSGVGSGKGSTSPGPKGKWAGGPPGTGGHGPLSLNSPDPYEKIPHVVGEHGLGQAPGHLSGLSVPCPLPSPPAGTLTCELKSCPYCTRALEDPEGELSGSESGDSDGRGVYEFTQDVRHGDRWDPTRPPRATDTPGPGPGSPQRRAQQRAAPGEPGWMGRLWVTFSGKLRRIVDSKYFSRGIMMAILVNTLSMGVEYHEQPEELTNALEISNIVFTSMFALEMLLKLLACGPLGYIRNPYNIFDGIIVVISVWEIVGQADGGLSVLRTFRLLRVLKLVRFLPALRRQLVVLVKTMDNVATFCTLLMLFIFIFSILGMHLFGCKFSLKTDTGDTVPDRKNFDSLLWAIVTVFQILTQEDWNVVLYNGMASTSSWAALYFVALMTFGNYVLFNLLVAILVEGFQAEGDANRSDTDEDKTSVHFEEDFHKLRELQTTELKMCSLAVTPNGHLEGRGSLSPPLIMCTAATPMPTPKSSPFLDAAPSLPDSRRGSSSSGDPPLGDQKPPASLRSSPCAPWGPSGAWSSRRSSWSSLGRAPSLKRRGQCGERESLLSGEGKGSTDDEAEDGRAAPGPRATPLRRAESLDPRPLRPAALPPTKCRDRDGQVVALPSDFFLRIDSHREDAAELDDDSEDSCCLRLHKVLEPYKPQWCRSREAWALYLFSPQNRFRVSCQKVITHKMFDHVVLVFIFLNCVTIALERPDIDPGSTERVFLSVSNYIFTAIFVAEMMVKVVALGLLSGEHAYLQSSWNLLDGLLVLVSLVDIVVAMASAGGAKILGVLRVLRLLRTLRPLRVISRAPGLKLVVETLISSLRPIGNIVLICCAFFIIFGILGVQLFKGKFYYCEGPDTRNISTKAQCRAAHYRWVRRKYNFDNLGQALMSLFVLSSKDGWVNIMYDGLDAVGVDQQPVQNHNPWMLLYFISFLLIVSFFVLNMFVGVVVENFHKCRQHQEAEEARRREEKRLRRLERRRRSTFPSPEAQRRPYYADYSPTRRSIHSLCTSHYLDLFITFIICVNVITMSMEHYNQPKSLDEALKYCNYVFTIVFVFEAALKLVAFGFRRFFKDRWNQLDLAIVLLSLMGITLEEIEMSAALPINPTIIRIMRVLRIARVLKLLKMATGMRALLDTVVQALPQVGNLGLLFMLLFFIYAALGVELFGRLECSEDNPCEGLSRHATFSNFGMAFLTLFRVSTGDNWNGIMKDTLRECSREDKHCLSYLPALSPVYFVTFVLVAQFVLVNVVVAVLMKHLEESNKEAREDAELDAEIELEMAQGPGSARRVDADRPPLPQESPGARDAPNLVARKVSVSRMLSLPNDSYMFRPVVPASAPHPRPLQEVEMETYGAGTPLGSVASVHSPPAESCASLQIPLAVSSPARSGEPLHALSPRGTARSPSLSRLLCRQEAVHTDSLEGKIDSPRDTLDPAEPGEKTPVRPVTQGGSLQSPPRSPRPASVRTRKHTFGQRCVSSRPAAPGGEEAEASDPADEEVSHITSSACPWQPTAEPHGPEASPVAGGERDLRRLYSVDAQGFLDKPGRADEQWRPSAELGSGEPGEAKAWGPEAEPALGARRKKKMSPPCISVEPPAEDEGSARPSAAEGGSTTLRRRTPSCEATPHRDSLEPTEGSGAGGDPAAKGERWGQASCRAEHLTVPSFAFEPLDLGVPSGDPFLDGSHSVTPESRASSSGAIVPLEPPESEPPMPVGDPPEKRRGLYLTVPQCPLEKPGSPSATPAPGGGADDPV
- ASSAY: Inhibitory effect for intracellular calcium response via Cav3.2 T-type Ca2+ channels (FLIPR Calcium 3 Assay Kit)
- Format: cell-based
pIC50: −log10 of the molar value.

Q. Query: pIC50; subject: O=C(NC1CCC(F)(F)CC1)c1cc2nc(C3CC3)c(CC3CCC(F)(F)CC3)n2cc1Cl [Compound 14]
A. ≥ 7.00

Q. Param item = CC1(C)CC(NC(=O)c2cc(C#N)n3c(CC4CCC(F)(F)CC4)c(C(F)(F)F)nc3c2)CCO1 (stereo not shown) [Compound 57] ; retrieve measured pIC50.
A. ≥ 7.00

Q. // pIC50 lookup, key: CCCCc1c(C(C)C)nc2cc(C(=O)Nc3ccccc3)ccn12 [Compound 144]
A. ≥ 7.00

Q. // lookup pIC50 for N#Cc1cc(C(=O)NC2CC2)cc2nc(C(F)(F)F)c(CC3CCC(F)(F)CC3)n12 [Compound 76]
A. ≥ 7.00

Q. Give its pIC50 value. Item: O=C(CC1CCOCC1)NNC(=O)c1cc(Cl)n2c(CC3CCC(F)(F)CC3)c(C(F)(F)F)nc2c1 [Compound 143]
A. ≥ 7.00

Q. Any idea what its pIC50 is? The molecule is [2H]C([2H])([2H])OC(C)(C)CNC(=O)c1cc(C#N)n2c(CC3CCC(F)(F)CC3)c(C(F)(F)F)nc2c1 [Compound 186]
A. ≥ 7.00
